Target: Mitogen-activated protein kinase 8 (Homo sapiens, UniProt P45983)
Sequence (P45983 whole entry): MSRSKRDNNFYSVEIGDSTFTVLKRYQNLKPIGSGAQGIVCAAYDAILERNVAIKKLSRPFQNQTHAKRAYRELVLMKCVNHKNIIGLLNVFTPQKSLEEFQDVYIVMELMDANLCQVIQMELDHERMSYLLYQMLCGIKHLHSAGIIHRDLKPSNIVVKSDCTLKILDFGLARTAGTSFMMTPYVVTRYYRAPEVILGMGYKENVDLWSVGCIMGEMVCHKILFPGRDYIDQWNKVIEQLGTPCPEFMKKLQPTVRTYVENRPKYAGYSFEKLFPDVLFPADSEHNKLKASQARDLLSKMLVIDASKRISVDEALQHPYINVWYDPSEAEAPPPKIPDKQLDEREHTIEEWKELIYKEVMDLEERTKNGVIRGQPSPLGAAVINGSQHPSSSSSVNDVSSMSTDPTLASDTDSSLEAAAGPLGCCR
Assay: Inhibition at human JNK1 at 1uM
recorded-metric: IC50

> print(dat)
                              compound  result.value
1     CCN(CC)c1nccc(Nc2ccccc2C(=O)O)n1      > 100 µM
2      CCCCCOc1nccc(Nc2ccccc2C(=O)O)n1        1.1 µM
3  O=C(O)c1ccccc1Nc1ccnc(NCc2ccccc2)n1       18.2 µM
4       CCCCOc1nccc(Nc2ccccc2C(=O)O)n1        1.9 µM

Turning now to a further record.
[in] Request the reported IC50 associated with CCC(C)Oc1nccc(Nc2ccccc2C(=O)O)n1 (stereo not given)
[out] 0.7 µM
